Test: Pharmacokinetic studies in rats (plasma and brain)
Type: in vivo
Settings: rat, plasma, ip, 40 mg/kg, i.p. 40 mg/kg, 6h, mean all rats
From the text: Because binding to plasma protein was approximately 90%, we predicted that the free concentration at each time point was 10 times lower than the measured plasma concentration. Pharmacokinetic studies in rats. Pharmacokinetics studies were contracted to the Drug Metabolism and Pharmacokinetics Core at Scripps Research. […] CP612 was detected with an API Triple Quad 5500 LC-MS/MS (SCIEX) using an MRM(+) method: CP612 (463/282, m/z) with carbamazepine (238/195.1, m/z) as an internal standard.
measured_attribute: concentration at 6 h (nM)

- structure_smiles_string: "N[C@H](CNC(=O)C1(c2ccc(Cl)cc2)CCCC1)c1ccc(C(=O)Nc2ccncc2)cc1"
  u: "nM"
  result: 1890
